assay.overview: small-molecule microarray binders of probe aXIP, primary screen, biochemical, NeuroSMM set, 635/667 nm fluorescence (AID 1119);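 note: probe is the protein aXip251-270 applied at 1 µg/mL to compound-printed slides; binding of probe to printed compounds measured as 667 nm fluorescence plus signal to noise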
condition.set: higher = more signal, called active from +8 up or from −8 down
# if value of composite Z-score reaches 0.009, tag Met; if it stays below, tag Not met

| compound | qualitative.label |
| --- | --- |
| CC(C)OC(=O)CC(=O)CC(O)c1ccc([N+](=O)[O-])cc1 (centres undefined) | Not met |
| C=CCC(OC(C)=O)[C@@H]1[C@@H](N(Cc2cccc3ccccc23)C(=O)Cc2ccc(F)cc2)c2cc(OCCCO)ccc2N1C(=O)c1ccc(-c2ccccc2)cc1 (some centres undefined) | Not met |
| CC(C)C(=C=CC[C@@H](O)c1cccc(OCCO)c1)C[C@@H](O)c1ccccn1 | Not met |
| CCOC(=O)C[C@H]1[C@H](OC(=O)c2ccccc2-c2ccccc2)[C@@H](NC(=O)c2ccc3ccccc3n2)c2cc(OCCCO)ccc2N1C(=O)c1ccccc1 | Met |
| CCCC=C(CCC)[C@@H](NC(=O)CCc1ccccc1)c1ccc(C(F)(F)F)cc1 | Not met |
| C[C@@]12COC[C@]13C=C(Br)[C@H](C2)[C@@]1(CO1)C3=O | Met |
| COc1cc2c(cc1O)C(c1ccc(CN3CCCC3)cc1)N(C)CC2 (centres undefined) | Met |
| C#C[C@@H](CC)O[Si](C#CCCCC#N)(C(C)C)C(C)C | Not met |

---

assay.overview: small-molecule microarray binders of probe aShh, primary screen, biochemical, biotinylated probe, 635/667 nm fluorescence (AID 1114);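 note: probe is biotin-labelled aShh protein from a stem cell growth factor screen; measures binding of labelled protein to compounds printed on the slide; score merges feature fluorescence at 667 nm with signal-to-noise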
condition.set: higher = more signal
Mark T for reported composite z-score of 0.06 or greater; mark F for anything smaller.

| compound | qualitative.label |
| --- | --- |
| CN(C)C(=O)[C@@]1(CCC(=O)OC(C)(C)C)N=C(c2ccc(OCCCO)cc2)O[C@H]1c1ccccc1CN=[N+]=[N-] | T |
| CC(C)C[C@@H]1NC(=O)[C@@H]2C[C@H](C(=O)NCCCCCC[N+](C)(C)C)[C@H](c3cccc(OCCO)c3)N2C1=O | F |
| COCC(=C=CC[C@@H](O)c1ccc(OCCO)cc1)CCO | T |
| COc1ccc(C(O)C2C=CC3C(=O)N(c4ccccc4)C(=O)C3N2Nc2ccc(C(C)C)cc2)c2ccccc12 (configuration not stated) | T |
| COCCOC(=O)N1C(=O)[C@@]2(c3cc(C#CC4=CCCCC4)ccc31)[C@H](C(=O)N1CCCCCCC1)[C@H]1C(=O)O[C@H](c3ccccc3)[C@H](c3ccccc3)N1[C@@H]2c1ccc(OCCO)cc1 | T |
| [N-]=[N+]=NCc1ccccc1[C@@H]1OC(c2ccc(OCCCO)cc2)=N[C@]1(Cc1ccccc1N=[N+]=[N-])C(=O)N1CCCCC1 | F |

---

# maps each entry to its z-score
assay.overview: cell viability in Huh7 cells, primary screen, cytotoxicity control for HCV replication inhibitor project, CellTiter-Glo luminescence, basal, 48 h (AID 1143);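 note: Huh7 hepatoma cells carrying a hepatitis C replication reporter with no stimulus; test concentration not given here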
condition.set: Huh7 HCV replicon, higher = more signal, called active from +8 up or from −8 down

| molecule.smiles | z-score |
| --- | --- |
| COCCOC(=O)N1C(=O)[C@@]2(c3ccccc31)[C@H](c1ccc(OCCO)cc1)N1[C@H](c3ccccc3)[C@H](c3ccccc3)OC(=O)[C@H]1[C@@H]2C(=O)N1CCCCCCC1 | -2.59 |
| CC(=O)NCCCC[C@@H]1NC(=O)[C@@H]2C[C@H](C(=O)NCCCCCCN)[C@H](c3cccc(OCCO)c3)N2C1=O | -0.0107 |
| CC(C)CNC(=O)[C@@]1(C)c2ccccc2C(=O)N(Cc2cc(C(F)(F)F)cc(C(F)(F)F)c2)[C@H]1c1ccc(CO)cc1 | -3.12 |
| COc1ccc([Si](C)(C)[C@H]2[C@H](CCO)O[C@@]3(C(=O)N(Cc4ccc(N5C(=O)c6ccccc6Oc6ccccc65)cc4)c4ccccc43)[C@@H]2C)cc1 | -5.43 |
| NC(=O)NCC#Cc1ccc2c(c1)[C@]1(C(=O)N2)[C@H](C(=O)N2CCN(c3ncccn3)CC2)[C@H]2C(=O)O[C@H](c3ccccc3)[C@H](c3ccccc3)N2[C@@H]1c1ccc(OCCO)cc1 | 0.0749 |
| COCCOC(=O)N1C(=O)[C@@]2(c3cc(C#Cc4ccc(OC)cc4)ccc31)[C@H](C(=O)NC[C@H](O)c1ccccc1)[C@H]1C(=O)O[C@H](c3ccccc3)[C@H](c3ccccc3)N1[C@@H]2c1ccc(OCCO)cc1 | -5.48 |
